Values from paper PMC9482650

# assayTarget: MAGI2_3, Q86UL8
# Sequence (Q86UL8 600-682): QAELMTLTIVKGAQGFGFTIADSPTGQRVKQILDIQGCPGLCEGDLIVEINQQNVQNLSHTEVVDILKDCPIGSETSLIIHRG
# testSummary: holdup assay
# Parameters: key: below the threshold = too weak to quantify, mostly under pKd 3.1 to 4
# testContext: plain residues with an end cap or a label only (N-terminal biotin on a linker: ado-ado)
measurementLabel: pKd

[[record]]
binder = "QGLAERISVL [PRKD2, Q9BZL6]"
observedmeasurement = "below the threshold"

[[record]]
binder = "VKPQVSESKL [ACOT8, O14734]"
observedmeasurement = "below the threshold"

[[record]]
binder = "YYKRPVQEWV [MMP24, Q9Y5R2]"
observedmeasurement = "below the threshold"

[[record]]
binder = "SAKVRTVTSV [RASL11B, Q9BPW5]"
observedmeasurement = 4.25

[[record]]
binder = "LPAHHNATRL [SLC34A1, Q06495;Q06495-1]"
observedmeasurement = "below the threshold"

[[record]]
binder = "DTTVPESEDL [MYOZ2, Q9NPC6]"
observedmeasurement = "below the threshold"

[[record]]
binder = "EVEEFPETSV [TRPV3, Q8NET8]"
observedmeasurement = 4.06

[[record]]
binder = "SSALYGESDL [ACTN2, P35609]"
observedmeasurement = "below the threshold"

